All figures here come from PubChem BioAssay (NCI).

Test system: SF-539 CNS
assay-summary: NCI-60 one-dose screen, 48 h (100 = growth as untreated, 0 = no growth, -100 = all killed)
measurement-context: 10 µM unless noted
The panel holds about 83,000 compounds, 20% with a hit somewhere; the sample as a whole holds those more often.
Classification field: satisfied = growth at or over -10%; not satisfied = growth under -10%.

Is the recorded value of growth equal to or greater than -10% for this compound? `CCCN1[C@@H]2CC[C@H]1/C(=C\c1ccc(OC)c(OC)c1)C(=O)/C2=C/c1ccc(OC)c(OC)c1` satisfied

Is the recorded value of growth equal to or greater than -10% for this compound? `COc1ccc(C/C(=C(\C)c2ccc(OCCN3CCCC3)cc2)c2ccc(OCCN3CCCC3)cc2)cc1` satisfied

Is the recorded value of growth equal to or greater than -10% for this compound? N#CC1=C(N)Oc2c(ccc3ccccc23)C1c1ccccc1Cl (stereo not given) not satisfied

Is the recorded value of growth equal to or greater than -10% for this compound? `COc1cc(C2=C(c3cn(C)c4ccccc34)COC2=O)cc(OC)c1OC` not satisfied

Is the recorded value of growth equal to or greater than -10% for this compound? `CC[C@]12C=CCN3CC[C@@]4(c5cc(NC(=O)CCC(=O)O[C@H]6CC[C@H]7[C@@H]8CCC9=CC(=O)CC[C@@H]9[C@H]8CC[C@]67C)c(OC)cc5N(C)[C@H]4[C@@](O)(C(=O)OC)[C@@H]1OC(C)=O)[C@@H]32` satisfied
